- assayMethodText: Acute toxicity
- conditionContext: mouse, in vivo, iv, 7 days observation
Items are presented alongside their recorded LD50 at 168 h.

INSERT INTO assay_data (compound, assayresult) VALUES
  ('CN1CCN([C@H]2c3ccccc3O[C@@H](c3ccccc3)[C@@H]2O)CC1 (relative stereo)', '300 mg/kg');

Find the recorded LD50 at 168 h belonging to O[C@H]1[C@H](c2ccccc2)Oc2ccccc2[C@@H]1N1CCCCC1 (relative stereo) and report it.
1000 mg/kg

Request: CCN(CC)CCN[C@H]1c2ccccc2O[C@H](c2ccc(OC)cc2)[C@@H]1O (relative stereo)
1000 mg/kg

Request: CN(C)CCN[C@H]1c2ccccc2O[C@@H](c2ccccc2)[C@@H]1O (relative stereo)
300 mg/kg

Request: CC(=O)O[C@H]1[C@H](c2ccccc2)Oc2ccccc2[C@@H]1N1CCN(C)CC1 (relative stereo)
300 mg/kg

Request: COc1ccc([C@H]2Oc3ccccc3[C@H](NCCCN3CCOCC3)[C@H]2O)cc1 (relative stereo)
500 mg/kg

Request: COc1ccc([C@H]2Oc3ccccc3[C@H](N3CCN(C)CC3)[C@H]2O)cc1 (relative stereo)
1000 mg/kg

Request: COc1ccc([C@H]2Oc3ccccc3[C@H](NCCCN(C)C)[C@H]2O)cc1 (relative stereo)
1000 mg/kg

meta.source: patent US4334067A
